Test system: Surinam grass
Experiment: Test B pre-/postemergence herbicide test
Assay type: in vivo, Urochloa decumbens
Details: postemergence, 125 g ai/ha; visual rating, scale 0 (no effect) to 100 (complete control)
Below, each entry is listed alongside its reported Surinam Grass plant response rating.
Quantity measured: Surinam Grass plant response rating

compound="CCn1nc(C(C)(C)C)cc1C(=O)Nc1cc(C(=O)OC)cc(C)n1 [Compound 148]" quantity_measured="Surinam Grass plant response rating" reported_measurement=10
compound="CCn1nc(C(C)(C)C)cc1C(=O)Nc1cc(C(=O)N2CC=CC2)ccn1 [Compound 142]" quantity_measured="Surinam Grass plant response rating" reported_measurement=10
compound="CCOC(=O)c1cccc(NC(=O)c2cc(C(C)(C)C)nn2CC)c1C [Compound 88]" quantity_measured="Surinam Grass plant response rating" reported_measurement=0
compound="CCn1nc(C(C)(C)C)cc1C(=O)Nc1cccc([S+]([O-])C(F)(F)F)c1 (stereo not drawn) [Compound 135]" quantity_measured="Surinam Grass plant response rating" reported_measurement=30
compound="CCOC(=O)c1cc(N(C(C)=O)C(=O)c2cc(C(C)(C)C)nn2CC)ccc1C [Compound 141]" quantity_measured="Surinam Grass plant response rating" reported_measurement=10
compound="CCON=C(C)c1cccc(NC(=O)c2cc(C(C)(C)C)nn2C)c1 [Compound 105]" quantity_measured="Surinam Grass plant response rating" reported_measurement=0
compound="CCn1nc(C(C)(C)C)cc1C(=O)Nc1cccc2c1CCN(C1CC1)C2=O [Compound 64]" quantity_measured="Surinam Grass plant response rating" reported_measurement=10
compound="CCNC(=O)c1cc(NC(=O)c2cc(C(C)(C)C)nn2CC)ccc1F [Compound 58]" quantity_measured="Surinam Grass plant response rating" reported_measurement=10
compound="CCCOC(=O)c1cccc(NC(=O)c2cc(C(C)(C)C)nn2CC)c1C [Compound 90]" quantity_measured="Surinam Grass plant response rating" reported_measurement=10
